Measured IC50 accompanies every entry in the list below.
target: MMP-13CD (catalytic domain of collagenase 3) (Homo sapiens); experiment: Thiopeptolide hydrolysis assay, MMP-13; details: MMP13 IC50 (μM), Table 1b
Where a name gives a salt, the structure may show the parent alone.
metric.name: IC50 (µM)

> print(dat)
                                   compound  units.of.measure  number
1  Cc1c(=O)n(Cc2ccccc2)c(=O)n2cc(C(=O)NCc3ccncc3)sc12 [hydrochloride]                µM  0.0487
2  Cc1c(=O)n(Cc2ccc(S(N)(=O)=O)cc2)c(=O)n2cc(C(=O)NCc3ccncc3)sc12 [hydrochloride]                µM  0.0463
3  Cc1c(=O)n(Cc2ccccc2)c(=O)n2cc(C(=O)NCc3cccc(F)c3)sc12                µM    0.12
4  Cc1c(=O)n(Cc2ccc(C(=O)N3CCOCC3)cc2)c(=O)n2cc(C(=O)NCc3ccncc3)sc12 [hydrochloride]                µM   0.037

====

Measured IC50 accompanies every entry in the list below.
target: MMP-13CD (catalytic domain of collagenase 3) (Homo sapiens); assay: Thiopeptolide hydrolysis assay, MMP-13; conditions: MMP13 IC50 (μM), Table 1b
Where a name gives a salt, the structure may show the parent alone.
metric.name: IC50 (µM)

> print(dat)
                                   compound                             system.tested  metric.name   number
1  Cc1c(=O)n(Cc2ccccc2)c(=O)n2cc(C(=O)NCc3cccnc3)sc12  MMP-13CD (catalytic domain of collagenase 3) (Homo sapiens)         IC50    0.225
2  COC(=O)c1ccc(Cn2c(=O)c(C)c3sc(C(=O)NCc4ccc(F)cc4)cn3c2=O)cc1OC  MMP-13CD (catalytic domain of collagenase 3) (Homo sapiens)         IC50    0.099
3  Cc1c(=O)n(Cc2ccccc2)c(=O)n2cc(C(=O)NCc3ccc(Cl)cc3)sc12  MMP-13CD (catalytic domain of collagenase 3) (Homo sapiens)         IC50   0.0869
4  COc1ccc(CNC(=O)c2cn3c(=O)n(Cc4ccc(C(=O)O)cc4)c(=O)c(C)c3s2)cc1 [sodium salt]  MMP-13CD (catalytic domain of collagenase 3) (Homo sapiens)         IC50  0.00175
5  COc1ccc(CNC(=O)c2cn3c(=O)n(Cc4ccc(Cl)c(Cl)c4)c(=O)cc3s2)cc1  MMP-13CD (catalytic domain of collagenase 3) (Homo sapiens)         IC50    0.084
6  Cc1nc(Cn2c(=O)c(C)c3sc(C(=O)NCc4ccc(F)cc4)cn3c2=O)cs1  MMP-13CD (catalytic domain of collagenase 3) (Homo sapiens)         IC50     0.77
7  Cc1c(=O)n(Cc2ccc(Cl)cc2)c(=O)n2cc(C(=O)NCc3ccncc3)sc12  MMP-13CD (catalytic domain of collagenase 3) (Homo sapiens)         IC50    0.053
8  Cc1c(=O)n(Cc2ccc(-c3nn[nH]n3)cc2)c(=O)n2cc(C(=O)NCc3ccc(F)cc3)sc12  MMP-13CD (catalytic domain of collagenase 3) (Homo sapiens)         IC50   0.0009
9  Cc1c(=O)n(CCS(=O)(=O)Cc2ccccc2)c(=O)n2cc(C(=O)NCc3ccc(F)cc3)sc12  MMP-13CD (catalytic domain of collagenase 3) (Homo sapiens)         IC50     0.56

====

biological target: MMP-13CD (catalytic domain of collagenase 3) (Homo sapiens, UniProt P45452); assay: Thiopeptolide hydrolysis assay, MMP-13; settings: MMP13 (CD) IC50 μM, Table 1a; catalytic domain
Measured IC50 accompanies every entry in the list below.
metric.name: IC50 (µM)

> print(dat)
                              smiles.string                             system.tested  metric.name  units.of.measure  number
1  O=C(NCc1ccccc1)c1cn2c(=O)n(Cc3ccccc3)c(=O)cc2s1  MMP-13CD (catalytic domain of collagenase 3) (Homo sapiens, UniProt P45452)         IC50                µM    0.51
2  Cc1c(=O)n(Cc2ccc(S(C)(=O)=O)cc2)c(=O)n2cc(C(=O)NCc3ccncc3)sc12  MMP-13CD (catalytic domain of collagenase 3) (Homo sapiens, UniProt P45452)         IC50                µM  0.0235
3  Cc1c(=O)n(Cc2ccc(C(=O)O)cc2)c(=O)n2cc(C(=O)NCc3ccncc3)sc12  MMP-13CD (catalytic domain of collagenase 3) (Homo sapiens, UniProt P45452)         IC50                µM  0.0057
4  Cc1c(=O)n(Cc2ccccc2)c(=O)n2cc(C(=O)OCc3ccccc3)sc12  MMP-13CD (catalytic domain of collagenase 3) (Homo sapiens, UniProt P45452)         IC50                µM  0.0056

====

metric.name: melting point (°C)

> print(dat)
                                   compound  units.of.measure  qualifier  number
1  COC(=O)c1ccc(Cn2c(=O)c3cc(C(=O)NCc4ccc(OC)cc4)ccc3n3cnnc23)cc1 [Synthesis Example 59]                °C          =     210
2  O=C(O)c1ccc(Cn2c(=O)c3cc(C(=O)NCc4ccc5c(c4)OCO5)ccc3n3cnnc23)cc1 [Synthesis Example 61]                °C          =     235
3  COc1ccc(CNC(=O)c2cn3c(=O)n(Cc4ccc(C(=O)O)cc4)c(=O)c(C)c3s2)cc1 [Synthesis Example 5]                °C          >     210

====

target: MMP-3CD (catalytic domain of stromelysin) (Homo sapiens, UniProt P08254); assay: Thiopeptolide hydrolysis assay, MMP-3; assay type: biochemical; conditions: read-out: MMP03 (CD) IC50;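 further: inhibition of thiopeptolide substrate (100 µM) cleavage by the MMP-3 catalytic domain, detected with DTNB at pH 6.0 with CaCl2, hydrolysis compared against runs lacking inhibitor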
Sequence (P08254 100-272 limits assumed): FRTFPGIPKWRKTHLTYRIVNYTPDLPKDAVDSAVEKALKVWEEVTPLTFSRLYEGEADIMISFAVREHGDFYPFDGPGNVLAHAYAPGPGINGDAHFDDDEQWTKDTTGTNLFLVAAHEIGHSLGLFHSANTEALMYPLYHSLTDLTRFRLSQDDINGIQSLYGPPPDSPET
metric.name: IC50

> print(dat)
                              smiles.string    result
1  O=C(OCc1ccccc1)c1cn2c(=O)n(Cc3ccccc3)c(=O)cc2s1  > 100 µM

====

Measured IC50 accompanies every entry in the list below.
target: MMP-13CD (catalytic domain of collagenase 3) (Homo sapiens, UniProt P45452); assay: Thiopeptolide hydrolysis assay, MMP-13; settings: IC50 μM, Table V; MMP-13
metric.name: IC50 (µM)

> print(dat)
                                   molecule  number
1  COc1ccc(CNC(=O)c2ccc3c(c2)c(=O)n(Cc2ccc(C(=O)O)cc2)c2nncn32)cc1 [Synthesis Example 60]  0.0011
2  COc1ccc(CNC(=O)c2ccc3c(c2)c(=O)n(Cc2ccccc2)c2nncn32)cc1  0.0055
3  COC(=O)Cc1ccc(Cn2c(=O)c3cc(C(=O)NCc4ccc5c(c4)OCO5)ccc3n3cnnc23)cc1  0.0022
4  O=C(NCc1ccncc1)c1ccc2c(c1)c(=O)n(C/C=C/c1ccncc1)c1nncn21    0.35
5  COC(=O)Cc1ccc(Cn2c(=O)c3cc(C(=O)NCc4ccncc4)ccc3n3cnnc23)cc1   0.013
6  O=C(O)c1ccc(Cn2c(=O)c3cc(C(=O)NCc4ccc(F)cc4)ccc3n3cnnc23)cc1  0.0011
7  O=C(O)Cc1ccc(Cn2c(=O)c3cc(C(=O)NCc4ccc5c(c4)OCO5)ccc3n3cnnc23)cc1  0.0011
8  COc1ccc(CNC(=O)c2ccc3c(c2)c(=O)n(Cc2ccc(CC(=O)O)cc2)c2nncn32)cc1  0.0013

====

Measured IC50 accompanies every entry in the list below.
biological target: MMP-13CD (catalytic domain of collagenase 3) (Homo sapiens, UniProt P45452); assay: Thiopeptolide hydrolysis assay, MMP-13; details: MMP13 IC50 μM, Table IVb;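 further: inhibition of enzymatic thiopeptolide substrate cleavage (100 µM) in pH 6.0 MES buffer with CaCl2 and DTNB, comparing hydrolysis with versus without inhibitor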
metric.name: IC50

> print(dat)
                              smiles.string  metric.name     result
1  COc1ccc(CNC(=O)c2ccc3c(c2)c(=O)n(Cc2ccc(F)cc2)c(=O)n3C)cc1         IC50  0.0145 µM
2  Cn1c(=O)c2cc(C(=O)NCc3ccc4c(c3)OCO4)ncc2n(C)c1=O         IC50    0.18 µM
3  COc1ccc(CNC(=O)c2ccc3c(c2)c(=O)n(Cc2ccc(-c4nc(C)no4)cc2)c(=O)n3C)cc1         IC50  0.0029 µM
4  COc1ccc(CNC(=O)c2ccc3c(c2)c(=O)n(Cc2ccc(CN)cc2)c(=O)n3C)cc1         IC50    0.07 µM
5  CNC(=O)c1ccc(Cn2c(=O)c3cc(C(=O)NCc4ccc(OC)cc4)ccc3n(C)c2=O)cc1         IC50  0.0064 µM

All figures here come from patent US20050004126A1.
